Data provenance: ChEMBL document CHEMBL1130998

Overview of recorded inhibition for various compounds
# Tgt: Tubulin (Homo sapiens) (UniProt P68371+Q9H4B7+P0DPH7+P68366+Q13509+Q71U36+P04350+Q3ZCM7+P07437+P68363+Q9BQE3+Q6PEY2+Q13885+Q9BVA1+Q9BUF5)
# Method summary: In vitro inhibition of binding of [3H]colchicine to tubulin at 50 mM.
# Type: protein-complex assay
Write down the numeric answer in % and omit the unit.

Check out these entries, answers already filled in.
COc1ccc(-c2oc3cc(OC)c(OC)c(O)c3c(=O)c2O)cc1O :: 9
COc1ccc(-c2oc3c(OC)c(OC)c(OC)c(O)c3c(=O)c2OC)cc1OC :: 4
COc1cc(OC)c(-c2oc3ccccc3c(=O)c2O)c(OC)c1 :: 22

Q: Endpoint output: inhibition of COc1ccc(-c2cc(=O)c3c(O)c(OC)c(O)cc3o2)cc1 [PECTOLINARIGENIN] . Value?
Result: 11

Q: Endpoint output: inhibition of "COc1cc(-c2oc3c(OC)c(O)c(OC)c(O)c3c(=O)c2OC)cc(OC)c1OC" . Value?
Result: 6

Q: Endpoint output: inhibition of "COc1ccc2c(=O)c(O)c(-c3ccc(OC)c(OC)c3)oc2c1" . Value?
Result: 0

Q: Endpoint output: inhibition of "COc1cc(-c2cc(=O)c3ccccc3o2)cc(OC)c1OC" . Value?
Result: 0

Q: Endpoint output: inhibition of "COc1cc(OC)c2c(=O)c(O)c(-c3ccc(OC)c(OC)c3)oc2c1" . Value?
Result: 0

Q: Endpoint output: inhibition of COc1ccc(-c2cc(=O)c3c(O)c(OC)c(OC)c(OC)c3o2)cc1OC [5-DEMETHYLNOBILETIN] . Value?
Result: 5

Q: Endpoint output: inhibition of COc1cc(-c2cc(=O)c3c(O)c(OC)c(OC)c(OC)c3o2)cc(OC)c1OC [GARDENIN] . Value?
Result: 0

====

# Tgt: Tubulin
# Method summary: In vitro inhibitory activity against tubulin polymerization (10 uM)
Property: IC50

COc1ccc(-c2oc3cc(O)cc(O)c3c(=O)c2OC)cc1O :: 3 µM

Q: Endpoint output: IC50 of "COc1ccc(-c2cc(=O)c3c(O)c(OC)c(O)cc3o2)cc1OC" . Value?
Result: > 40 µM

Q: Endpoint output: IC50 of "COc1ccc(-c2oc3c(OC)c(OC)c(OC)c(O)c3c(=O)c2OC)cc1O" . Value?
Result: 0.83 µM

Q: Endpoint output: IC50 of "COc1ccc(-c2oc3cc(O)c(OC)c(O)c3c(=O)c2OC)cc1O" . Value?
Result: 2 µM

Q: Endpoint output: IC50 of "COc1cc(OC)c(-c2oc3ccccc3c(=O)c2O)c(OC)c1" . Value?
Result: 31 µM

Q: Endpoint output: IC50 of "COc1cc(-c2oc3c(OC)c(O)c(OC)c(O)c3c(=O)c2OC)cc(OC)c1OC" . Value?
Result: > 40 µM

Q: Endpoint output: IC50 of "COc1ccc(-c2oc3cc(OC)c(OC)c(OC)c3c(=O)c2O)cc1O" . Value?
Result: > 40 µM

Q: Endpoint output: IC50 of "COc1ccc(-c2cc(=O)c3c(O)c(OC)c(OC)c(OC)c3o2)cc1OC" . Value?
Result: > 40 µM

====

# Test system: Panel NCI-60 (60 carcinoma cell lines)
# Method summary: In vitro cytotoxic potency against NCI-60 human tumor cell line
# Assay type: functional
Property: GI50 (µM)
Write down the numeric answer in µM and omit the unit.

COc1c(OC)c(O)c2c(=O)cc(-c3ccc(O)c(O)c3)oc2c1OC :: 4
COc1ccc(-c2cc(=O)c3c(OC)c(OC)c(OC)c(OC)c3o2)cc1OC :: 40
COc1ccc(-c2oc3cc(O)cc(O)c3c(=O)c2OC)cc1 :: 24
COc1ccc(-c2oc3c(OC)c(OC)c(OC)c(O)c3c(=O)c2OC)cc1O :: 0.13
O=c1c(O)c(-c2ccc(O)c(O)c2)oc2cc(O)cc(O)c12 :: 60
O=c1c(O)c(-c2ccc(O)c(O)c2)oc2cc(O)ccc12 :: 18
COc1ccc(-c2oc3ccc(C)cc3c(=O)c2O)cc1 :: 76
COc1ccc(-c2oc3cc(OC)c(C)c(C)c3c(=O)c2OC)cc1O :: 44
COc1cc(-c2cc(=O)c3c(O)c(OC)c(OC)c(OC)c3o2)ccc1O :: 22
CCOc1cc(O)c2c(=O)c(OC)c(-c3ccc(OC)c(O)c3)oc2c1 :: 12

Q: Endpoint output: GI50 of "COc1ccc(OC)c(-c2cc(=O)c3c(OC)c(OC)c(OC)c(OC)c3o2)c1" . Value?
Result: 24

Q: Endpoint output: GI50 of "COc1ccc(-c2cc(=O)c3c(OC)cccc3o2)c(OC)c1OC" . Value?
Result: 89

Q: Endpoint output: GI50 of "COc1cc(OC)c2c(=O)cc(-c3ccc(OC)c(OC)c3OC)oc2c1" . Value?
Result: 79

====

# Tgt: Tubulin (Homo sapiens) (UniProt P68371+Q9H4B7+P0DPH7+P68366+Q13509+Q71U36+P04350+Q3ZCM7+P07437+P68363+Q9BQE3+Q6PEY2+Q13885+Q9BVA1+Q9BUF5)
# Method summary: In vitro inhibition of binding of [3H]colchicine to tubulin at 50 mM.
# Assay type: protein-complex assay
Property: inhibition (%)
Write down the numeric answer in % and omit the unit.

COc1cc(-c2oc3c(OC)c(OC)c(OC)c(O)c3c(=O)c2OC)ccc1O :: 0
COc1ccc(-c2oc3c(OC)c(OC)c(OC)c(OC)c3c(=O)c2OC)cc1OC :: 1
COc1cc(-c2oc3c(OC)c(OC)cc(O)c3c(=O)c2OC)ccc1O :: 0
COc1ccc(-c2cc(=O)c3c(O)c(OC)c(O)cc3o2)cc1OC :: 6
COc1cc(-c2oc3c(OC)c(O)c(OC)c(O)c3c(=O)c2OC)ccc1O :: 6

Q: Endpoint output: inhibition of "COc1cc(O)c2c(=O)c(OC)c(-c3ccc(OC)c(O)c3)oc2c1" . Value?
Result: 0

Q: Endpoint output: inhibition of "COc1ccc(-c2oc3cc(OC)c(OC)c(OC)c3c(=O)c2O)cc1O" . Value?
Result: 2

====

# System: Panel NCI-60 (60 carcinoma cell lines)
# Method summary: In vitro cytotoxic potency against NCI-60 human tumor cell line
# Type: functional
Define the label as Fulfilled when GI50 is strictly less than 30 µM and as Not fulfilled in all remaining cases.

Please review the entries below; each comes with its answer.
COc1cc(O)c2c(=O)c(OC)c(-c3ccc(OC)c(O)c3)oc2c1 :: Not fulfilled
COc1ccc(-c2cc(=O)c3ccc(O)cc3o2)c(OC)c1OC :: Not fulfilled
COc1ccc(-c2cc(=O)c3c(O)cc(O)cc3o2)c(OC)c1OC :: Not fulfilled
COc1ccc(-c2oc3c(OC)c(OC)c(OC)c(O)c3c(=O)c2OC)cc1OC :: Fulfilled

Q: Determine if "COc1cc(OC)c(-c2cc(=O)c3c(O)c(OC)c(OC)c(OC)c3o2)cc1OC" shows GI50 strictly lower than 30 µM.
Result: Not fulfilled

Q: Determine if "COc1ccc(-c2oc3cc(O)c(OC)c(O)c3c(=O)c2OC)cc1O" shows GI50 strictly lower than 30 µM.
Result: Fulfilled

Q: Determine if "COc1cc(-c2oc3c(OC)cc(OC)c(O)c3c(=O)c2OC)cc(OC)c1OC" shows GI50 strictly lower than 30 µM.
Result: Fulfilled

====

# Tested on: Panel NCI-60 (60 carcinoma cell lines)
# Method summary: In vitro cytotoxic potency against NCI-60 human tumor cell line
# Type: functional
Property: GI50

COc1cc(O)c2c(=O)c(OC)c(-c3ccc(OC)c(OC)c3)oc2c1 [RETUSIN] :: 65 µM
COc1ccc2c(=O)c(O)c(-c3ccc(OC)c(OC)c3)oc2c1 :: 5.5 µM
COc1ccc(-c2oc3cc(OC)c(O)c(OC)c3c(=O)c2OC)cc1O :: 54 µM
COc1ccc(-c2oc3cc(O)c(OC)c(O)c3c(=O)c2O)cc1 [BETULETOL] :: 4.1 µM
COc1cc(-c2cc(=O)c3c(O)c(OC)c(OC)c(OC)c3o2)cc(OC)c1OC [GARDENIN] :: 19 µM
COc1ccc(-c2oc3cc(OC)cc(O)c3c(=O)c2OC)cc1 :: 54 µM
COc1cc(OC)c(-c2oc3ccccc3c(=O)c2O)c(OC)c1 :: 5.9 µM
COc1ccccc1-c1cc(=O)c2ccc(OC)c(OC)c2o1 :: 55 µM
COc1cc(OC)c2c(=O)c(O)c(-c3ccc(OC)c(OC)c3)oc2c1 :: 6.6 µM

Next up:
Q: Endpoint output: GI50 of "COc1ccc(-c2oc3cc(OC(C)=O)cc(OC(C)=O)c3c(=O)c2OC)cc1" . Value?
Result: 15 µM
